Assay: rescue of nicotinamide-shortened yeast lifespan – S. cerevisiae, OD615, primary screen (AID 775);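 further: 0% = nicotinamide-treated wells and 100% = cells grown without nicotinamide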
Conditions: S. cerevisiae growth with nicotinamide, at 10 µM, deaD strain in restrictive glucose medium
The campaign covered roughly 130,000 compounds. About 900 (0.69%) were called active.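 How the source made its calls: active means inhibition above a set limit, placed 3 SD over the median of all compounds (cut at about 26% in these data); inactive means the rest.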 The sample as a whole holds a higher share of actives than the screen did.
Entry note: the call must match one of label 1 = active, label 0 = inactive

Some entries whose results are on file:
O=C1CC(c2cccc(Cl)c2)CC(O)=C1C=Nc1ccccc1 (stereo not drawn)    label 0
CC(C)Oc1c(Br)cc(Br)cc1/C=N/NC(N)=S    label 0

Consider the record given below.
Q: Record lookup: outcome of this test for O=C1CC(c2ccccc2)CC(O)=C1C=NCCN1CCOCC1 (stereo not drawn) ?
Ans: label 1

---

Listing: inhibition of the nicotinamide effect of selected molecules
Experiment: rescue of nicotinamide-shortened yeast lifespan – S. cerevisiae, OD615, primary screen (AID 775);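 further: 0% = nicotinamide-treated wells and 100% = cells grown without nicotinamide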
Details: S. cerevisiae growth with nicotinamide, at 10 µM, hits give high values, deaD strain in restrictive glucose medium
The whole screen tested about 130,000 compounds, of which about 900 (0.69%) were called active. The sample holds actives, similar compounds and a random draw of the others, so the mix is not that of the screen.
Answer format: numeric, % implied, no suffix.

Example results:
O=C(Cc1ccccc1)NNC1CC(=O)N(c2ccc(Br)cc2)C1=O (stereo not drawn)    -4.42
Cc1cccc(N=C2NN=C(c3c[nH]c4ccccc34)CS2)c1    5.95

Q: I'd like to know its inhibition of the nicotinamide effect. The molecule in question is Cc1cccc(C(=O)c2cccc(C)c2)c1
Ans: -6.29

Q: Which inhibition of the nicotinamide effect value is on record for CNC(=S)N1CCN(c2ccccn2)CC1 ?
Ans: 1.57

---

Listing of entries alongside the reported inhibition of the nicotinamide effect.
Test: rescue of nicotinamide-shortened yeast lifespan – S. cerevisiae, OD615, primary screen (AID 775);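 further: 0% = nicotinamide-treated wells and 100% = cells grown without nicotinamide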
Details: S. cerevisiae growth with nicotinamide, at 10 µM, hits give high values, deaD strain in restrictive glucose medium
In all, about 130,000 compounds went through this assay and about 900 (0.69%) were called active. Only a selection was taken, and actives are over-represented in it overall.
The reply should be a number in %, with the unit left off.

Consider the following illustrative entries.
O=C(CS(=O)(=O)Cc1ccccc1)NCC1CCCO1 (configuration not stated)    46.3
Cc1nn(CC(=O)Nc2ccc(N(C)C)cc2)c(C)c1[N+](=O)[O-]    -0.66

Q: Form field: reported inhibition of the nicotinamide effect of Cn1c2ccccc2c(=O)c2c(=O)n(Cc3ccco3)c(COc3ccccc3)nc21
Ans: 17.5

Q: State the recorded inhibition of the nicotinamide effect for this entry: CCC(NC(=O)c1ccccc1NC(=O)c1ccccc1)C(=O)NNC(=O)CSc1nc2ccccc2o1 (configuration not stated)
Ans: -3.91

Q: I'd like to know its inhibition of the nicotinamide effect. The molecule in question is Cc1cc(Cl)ccc1NC(=S)NCCCN1CCCC1=O
Ans: 3.7

Q: State the recorded inhibition of the nicotinamide effect for this entry: CN(C)C(CNC(=O)c1ccc(S(=O)(=O)NCc2ccco2)cc1)c1ccccc1 (configuration not stated)
Ans: 3.63

Q: Any idea what its inhibition of the nicotinamide effect is? The molecule is CCOC(=O)c1c(NC(=O)C2(C)Cc3ccccc3C(=O)O2)sc2c1CCCC2 (configuration not stated)
Ans: 1.18

Q: Reported inhibition of the nicotinamide effect for CCCc1nc2c(c(=O)c3ccccc3n2C)c(=O)n1C1CCCCCC1 : what is it?
Ans: 47.5

Q: Name the recorded inhibition of the nicotinamide effect for CCOC(=O)N1CCN(C(c2cccnc2)c2ccc3cccnc3c2O)CC1 (configuration not stated) .
Ans: -7.28

Q: For the molecule shown here, CC1(C)CC(=O)C(N=Nc2ccc(S(=O)(=O)N3CCCCCC3)cc2)=C(O)C1 , give the reported inhibition of the nicotinamide effect.
Ans: -0.81

Q: Given the molecule Cc1ccccc1N/C(SCc1ccc(Cl)cc1)=C(/C#N)C(N)=O , what is its reported inhibition of the nicotinamide effect?
Ans: 1.27

Q: Look up inhibition of the nicotinamide effect: O=C(Cc1cccc2ccccc12)NCCC1=CCCCC1
Ans: 10.1
